# testTarget: human V2 receptor (Homo sapiens, UniProt P30518)
# Construct: A DNA fragment containing a human V2 receptor code region; expressed in transfected cells
# Sequence (P30518 whole entry, the tested form may be a part): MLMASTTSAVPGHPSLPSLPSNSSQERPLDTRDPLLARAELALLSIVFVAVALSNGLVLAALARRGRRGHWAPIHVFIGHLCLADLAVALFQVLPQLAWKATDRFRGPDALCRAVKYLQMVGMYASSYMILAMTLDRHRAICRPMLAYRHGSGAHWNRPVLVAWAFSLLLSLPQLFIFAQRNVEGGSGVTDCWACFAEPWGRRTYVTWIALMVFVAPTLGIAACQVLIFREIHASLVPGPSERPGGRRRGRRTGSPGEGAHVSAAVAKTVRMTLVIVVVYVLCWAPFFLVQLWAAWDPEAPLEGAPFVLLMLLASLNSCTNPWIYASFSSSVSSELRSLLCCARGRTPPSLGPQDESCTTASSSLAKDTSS
# measurementNotes: cAMP production test in V2 receptor expression cell
# Format: cell-based
# conditionParameters: maximum reaction by 8-AVP assumed to be 100%
metricName: Emax (%)

Problem: Provide value of Emax for this record tested with human V2 receptor (Homo sapiens, UniProt P30518): CC1(C(=O)NCc2nnco2)CCN(C(=O)c2ccc(N3CCCC3)cc2Cl)c2ccccc2C1 (racemic) [Example 82]
Solution: 101

Problem: Provide value of Emax for this record tested with human V2 receptor (Homo sapiens, UniProt P30518): C[C@@H]1CN(C(=O)c2ccc(N3CCCC3)cc2Cl)c2ccccc2CC1C(=O)O (mixture of isomers) [Example 56]
Solution: 102

Problem: Provide value of Emax for this record tested with human V2 receptor (Homo sapiens, UniProt P30518): Cc1cc(N2CCC(C)C2)ccc1C(=O)N1CCC(C)(C(=O)NCC(N)=O)Cc2ccccc21 (racemic) [Example 69]
Solution: 101

Problem: Provide value of Emax for this record tested with human V2 receptor (Homo sapiens, UniProt P30518): CC1CN(C(=O)c2ccc(N3CCCC3)cc2Cl)c2ccccc2CC1(F)C(=O)NCC(N)=O (racemic) [Example 101]
Solution: 102

Problem: Provide value of Emax for this record tested with human V2 receptor (Homo sapiens, UniProt P30518): COC(=O)C1(F)Cc2ccccc2N(C(=O)c2ccc(N3CCCC3)cc2Cl)CC1C (racemic) [Example 43]
Solution: 102

Problem: Provide value of Emax for this record tested with human V2 receptor (Homo sapiens, UniProt P30518): COC(=O)C1Cc2ccccc2N(C(=O)c2ccc(N3CCCC3)cc2Cl)CC1C (racemic) [Example 42]
Solution: 103

Problem: Provide value of Emax for this record tested with human V2 receptor (Homo sapiens, UniProt P30518): CCCOc1ccc(C(=O)N2CCC(C)(C(=O)NCC(N)=O)Cc3ccccc32)c(Cl)c1 (racemic) [Example 84]
Solution: 100

Problem: Provide value of Emax for this record tested with human V2 receptor (Homo sapiens, UniProt P30518): Cc1cc(N2CCC(C)C2)ccc1C(=O)N1CCC(F)(C(N)=O)Cc2ccccc21 (racemic) [Example 94]
Solution: 101

Problem: Provide value of Emax for this record tested with human V2 receptor (Homo sapiens, UniProt P30518): CC(C)C(NC(=O)C1(C)CCN(C(=O)c2ccc(OCCCF)cc2Cl)c2ccccc2C1)C(N)=O (racemic) [Example 73]
Solution: 100

----------
# testTarget: human V2 receptor (Homo sapiens)
# Construct: A DNA fragment containing a human V2 receptor code region
# measurementNotes: cAMP production test in V2 receptor expression cell
# conditionParameters: human V2 receptor expression cell, 30 minutes at room temperature, HTRF cAMP kit
pEC50: −log10 of the molar value.
metricName: pEC50

Problem: Form field: reported pEC50 of CC(CO)NC(=O)C1Cc2ccccc2N(C(=O)c2ccc(N3CCCC3)cc2Cl)CC1C (racemic)
Solution: 9.00

A: COC(=O)C1(C)CCN(C(=O)c2ccc(-n3cccn3)cc2Cl)c2ccccc2C1 (racemic)
B: Cc1ccn(-c2ccc(C(=O)N3CCC(C)(C(=O)NC(C)CO)Cc4ccccc43)c(C(F)(F)F)c2)n1 (single isomer, unassigned)
Problem: When A and B are compared, which has the higher number for pEC50? Your choice should be expressed through its label.
Solution: B
